Tested on: Escherichia coli TOP10;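 further: peptides expressed intracellularly from a pBAD plasmid library in pooled LB shake-flask culture, induced with 0.3% L-arabinose, DNA abundance read by NGS, three biological replicates, DESeq2 with apeglm shrinkage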
procedureDetails: shrunken log2 fold change of peptide-encoding DNA abundance (4.5 h post-induction vs induction); higher = less antimicrobial activity (less host growth inhibition)
conditionSet: time post-induction: 4.5 h; library: site-saturation at positions 5, 18, 19, 20
Tick yes if shrunken log2 fold change is 0.1 or greater. Tick no if shrunken log2 fold change is less than 0.1.

>>> qualitativelabel("RRIRIRPPRLPRPRPRPMHMPRP")
"no"
>>> qualitativelabel("RRIRMRPPRLPRPRPRPIMRPRP")
"yes"
>>> qualitativelabel("RRIRSRPPRLPRPRPRPLQQPRP")
"yes"
>>> qualitativelabel("RRIRHRPPRLPRPRPRPLLQPRP")
"yes"
>>> qualitativelabel("RRIRCRPPRLPRPRPRPDGSPRP")
"no"
>>> qualitativelabel("RRIRTRPPRLPRPRPRPFQVPRP")
"no"

[in] shrunken log2 fold change >= 0.1 for RRIRGRPPRLPRPRPRPKHRPRP ?
[out] yes

[in] Is shrunken log2 fold change for RRIRNRPPRLPRPRPRPHWCPRP at or above 0.1?
[out] no

[in] Can RRIRERPPRLPRPRPRPLDPPRP be said to have shrunken log2 fold change at or above 0.1?
[out] no
